Let's look at some compounds and their measured MTD at 72 h.
# Experiment Summary: Toxicity in iv dosed Balb/C athymic (nu+/nu+) mouse xenografted with human NCI-H1703 cells administered every 3 days for 6 doses
# Format: organism-based
# Experimental Parameters: in vivo
Recorded Metric: MTD at 72 h (mg/kg)

Input Smiles: CN[C@@H](C)C(=O)N[C@H](C(=O)N1Cc2cc([C@H]3C[C@@H](C(=O)N[C@@H]4CCCc5ccccc54)N(C(=O)[C@@H](NC(=O)[C@H](C)NC)C(C)(C)C)C3)ccc2C[C@H]1C(=O)N[C@@H]1CCCc2ccccc21)C(C)(C)C
Unit Of Measure: mg/kg
Numeric Value: 7.5

Input Smiles: CN[C@@H](C)C(=O)N[C@H](C(=O)N1Cc2cc(N[C@H]3C[C@@H](C(=O)N[C@@H]4CCCc5ccccc54)N(C(=O)[C@@H](NC(=O)[C@H](C)NC)C(C)(C)C)C3)ccc2C[C@H]1C(=O)N[C@@H]1CCCc2ccccc21)C(C)(C)C
Unit Of Measure: mg/kg
Numeric Value: 15

// data source = ChEMBL document CHEMBL3407443
